molecular target: Orexin/Hypocretin receptor type 1 (Homo sapiens); assay: Antagonist activity at human OX1 receptor expressed in CHO cells assessed as inhibition of orexin A-induced Ca2+ accumulation after 1 hr by Fluo-4-AM staining-based FLIPR assay
Sequence (O43613 whole entry): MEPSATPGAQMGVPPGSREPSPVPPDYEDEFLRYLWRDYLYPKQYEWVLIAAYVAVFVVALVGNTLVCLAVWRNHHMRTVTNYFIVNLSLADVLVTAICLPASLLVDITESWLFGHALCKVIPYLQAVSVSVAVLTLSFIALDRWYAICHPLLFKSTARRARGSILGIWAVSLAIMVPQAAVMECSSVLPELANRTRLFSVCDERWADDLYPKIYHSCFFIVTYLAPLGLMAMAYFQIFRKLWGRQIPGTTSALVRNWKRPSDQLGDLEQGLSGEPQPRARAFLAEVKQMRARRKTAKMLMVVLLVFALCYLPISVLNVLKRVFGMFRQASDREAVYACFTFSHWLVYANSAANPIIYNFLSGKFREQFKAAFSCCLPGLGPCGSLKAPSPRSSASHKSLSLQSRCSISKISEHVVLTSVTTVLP
log10(Ki) by entry:
readout-type: log10(Ki) (log10 of the value in nM)

[
  {
    "entry-smiles": "Cc1ccnc(N2CCC3(CCCN(Cc4c[nH]c5ccccc45)C3=O)CC2)n1",
    "log10(Ki)": 3.15
  },
  {
    "entry-smiles": "O=C1N(Cc2ccccc2)CCCC12CCN(c1cnc3ccccc3n1)CC2",
    "log10(Ki)": 3.19
  },
  {
    "entry-smiles": "Cc1cc(C)nc(N2CCC3(CCCN(Cc4c[nH]c5ncccc45)C3=O)CC2)n1",
    "log10(Ki)": 3.12
  },
  {
    "entry-smiles": "COc1ccc2[nH]cc(CN3CCCC4(CCN(c5nc(C)cc(C)n5)CC4)C3=O)c2c1",
    "log10(Ki)": 1.31
  },
  {
    "entry-smiles": "Cc1cc(C)nc(N2CCC3(CCCN(Cc4cn(C)c5ccccc45)C3=O)CC2)n1",
    "log10(Ki)": 3.16
  },
  {
    "entry-smiles": "O=C1N(Cc2c[nH]c3ccccc23)CCCC12CCN(c1cnc3ccccc3n1)CC2",
    "log10(Ki)": 2.46
  },
  {
    "entry-smiles": "O=C1CCCC2(CCN(c3cnc4ccccc4n3)CC2)N1Cc1cccc2[nH]ccc12",
    "log10(Ki)": 0.96
  },
  {
    "entry-smiles": "Cc1cc(C)nc(N2CCC3(CCCN(Cc4n[nH]cc4-c4ccccc4)C3=O)CC2)n1",
    "log10(Ki)": 2.89
  },
  {
    "entry-smiles": "O=C1CCCC2(CCN(c3nc4ccccc4o3)CC2)N1Cc1cccc2[nH]ccc12",
    "log10(Ki)": 1.27
  },
  {
    "entry-smiles": "O=C1CCCC2(CCN(c3cnc4ccccc4n3)CC2)N1Cc1c[nH]c2ccccc12",
    "log10(Ki)": 2.44
  },
  {
    "entry-smiles": "Cc1cc(C)nc(N2CCC3(CCCN(Cc4nn(C)nc4-c4ccccc4)C3=O)CC2)n1",
    "log10(Ki)": 2.88
  },
  {
    "entry-smiles": "Cc1cc(C)nc(N2CCC3(CCCN(Cc4nn(C)cc4-c4ccccc4)C3=O)CC2)n1",
    "log10(Ki)": 2.91
  },
  {
    "entry-smiles": "Cc1cc(C)nc(N2CCC3(CCCN(Cc4[nH]nnc4-c4ccccc4)C3=O)CC2)n1",
    "log10(Ki)": 2.85
  },
  {
    "entry-smiles": "Cc1ccc(C)c(CN2C(=O)CCCC23CCN(c2cnc4ccccc4n2)CC3)c1",
    "log10(Ki)": 1.77
  },
  {
    "entry-smiles": "Cc1cc(C)nc(N2CCC3(CCCN(Cc4c[nH]c5ccccc45)C3=O)CC2)n1",
    "log10(Ki)": 2.82
  },
  {
    "entry-smiles": "Cc1cc(C)nc(N2CCC3(CCCC(=O)N3Cc3cccc4[nH]ccc34)CC2)n1",
    "log10(Ki)": 2.57
  },
  {
    "entry-smiles": "O=C(Cc1ccccc1)N1CCCC12CCN(c1cnc3ccccc3n1)CC2",
    "log10(Ki)": 2.98
  },
  {
    "entry-smiles": "O=C1N(Cc2cccc3[nH]ccc23)CCCC12CCN(c1cnc3ccccc3n1)CC2",
    "log10(Ki)": 2.74
  },
  {
    "entry-smiles": "O=C1CCCC2(CCN(c3cnc4ccccc4n3)CC2)N1Cc1ccccc1",
    "log10(Ki)": 3.17
  },
  {
    "entry-smiles": "Cc1cc(C)nc(N2CCC3(CCCN(Cc4n[nH]c5ccccc45)C3=O)CC2)n1",
    "log10(Ki)": 2.69
  }
]

====

Target: Orexin/Hypocretin receptor type 1 (Mus musculus, UniProt P58307)
Sequence (P58307 whole entry): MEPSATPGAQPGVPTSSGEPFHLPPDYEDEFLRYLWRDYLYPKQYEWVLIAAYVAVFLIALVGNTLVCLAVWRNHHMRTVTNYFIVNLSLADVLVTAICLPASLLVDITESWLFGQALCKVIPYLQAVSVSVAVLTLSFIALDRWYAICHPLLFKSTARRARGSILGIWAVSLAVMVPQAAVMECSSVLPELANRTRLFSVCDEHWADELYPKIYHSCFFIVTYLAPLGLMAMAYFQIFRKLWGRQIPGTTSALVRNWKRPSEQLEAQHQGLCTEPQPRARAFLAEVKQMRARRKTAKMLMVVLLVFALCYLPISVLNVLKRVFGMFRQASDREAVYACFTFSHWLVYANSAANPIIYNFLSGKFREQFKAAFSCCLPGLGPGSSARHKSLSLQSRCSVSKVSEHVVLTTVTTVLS
Experiment: Antagonist activity at mouse OX1 receptor expressed in CHO cells assessed as inhibition of orexin A-induced Ca2+ accumulation after 1 hr by Fluo-4-AM staining-based FLIPR assay
readout-type: Ki

[
  {
    "entry-smiles": "Cc1ccc(-n2nccn2)c(C(=O)N2CCN(c3nc4cc(Cl)ccc4o3)CC[C@H]2C)c1",
    "assay-value": "1.7 nM"
  },
  {
    "entry-smiles": "COc1ccnc(N2CCC3(CCCN(Cc4c[nH]c5ccccc45)C3=O)CC2)n1",
    "assay-value": "457 nM"
  }
]

====

target: Orexin receptor type 2 (Homo sapiens); assay: Antagonist activity at human OX2 receptor expressed in HEK cells assessed as inhibition of orexin A-induced Ca2+ accumulation after 1 hr by Fluo-4-AM staining-based FLIPR assay
pKi: −log10 of the molar value.
pKi by entry:

[
  {
    "entry-smiles": "O=C1N(Cc2cccc3[nH]ccc23)CCCC12CCN(c1cnc3ccccc3n1)CC2",
    "pKi": 7.11
  },
  {
    "entry-smiles": "O=C(Cc1ccccc1)N1CCCC12CCN(c1cnc3ccccc3n1)CC2",
    "pKi": 6.73
  },
  {
    "entry-smiles": "O=C1CCCC2(CCN(c3cnc4ccccc4n3)CC2)N1Cc1c[nH]c2ccccc12",
    "pKi": 7.16
  },
  {
    "entry-smiles": "O=C1N(Cc2c[nH]c3ccccc23)CCCC12CCN(c1cnc3ccccc3n1)CC2",
    "pKi": 7.21
  },
  {
    "entry-smiles": "Cc1cc(C)nc(N2CCC3(CCCN(Cc4c[nH]c5ncccc45)C3=O)CC2)n1",
    "pKi": 7.79
  },
  {
    "entry-smiles": "O=C1CCCC2(CCN(c3cnc4ccccc4n3)CC2)N1Cc1cccc2[nH]ccc12",
    "pKi": 9.34
  },
  {
    "entry-smiles": "Cc1ccc(C)c(CN2C(=O)CCCC23CCN(c2cnc4ccccc4n2)CC3)c1",
    "pKi": 7.89
  }
]

====

assay: AUC (infinity) in C57BL/6 mouse blood at 3 mg/kg, po; type: ADME, organism-based; set-up: time infinity, dose 3 mg/kg, route oral

[
  {
    "entry-smiles": "COc1ccnc(N2CCC3(CCCN(Cc4c[nH]c5ccccc45)C3=O)CC2)n1",
    "AUC(0-inf) (µM·h)": 2.09
  },
  {
    "entry-smiles": "O=C1CCCC2(CCN(c3cnc4ccccc4n3)CC2)N1Cc1cccc2[nH]ccc12",
    "AUC(0-inf) (µM·h)": 0.031
  }
]

====

Ki by entry:
target: Orexin receptor type 2 (Mus musculus); experiment: Antagonist activity at mouse OX2 receptor expressed in HEK cells assessed as inhibition of orexin A-induced Ca2+ accumulation after 1 hr by Fluo-4-AM staining-based FLIPR assay
Sequence (P58308 whole entry): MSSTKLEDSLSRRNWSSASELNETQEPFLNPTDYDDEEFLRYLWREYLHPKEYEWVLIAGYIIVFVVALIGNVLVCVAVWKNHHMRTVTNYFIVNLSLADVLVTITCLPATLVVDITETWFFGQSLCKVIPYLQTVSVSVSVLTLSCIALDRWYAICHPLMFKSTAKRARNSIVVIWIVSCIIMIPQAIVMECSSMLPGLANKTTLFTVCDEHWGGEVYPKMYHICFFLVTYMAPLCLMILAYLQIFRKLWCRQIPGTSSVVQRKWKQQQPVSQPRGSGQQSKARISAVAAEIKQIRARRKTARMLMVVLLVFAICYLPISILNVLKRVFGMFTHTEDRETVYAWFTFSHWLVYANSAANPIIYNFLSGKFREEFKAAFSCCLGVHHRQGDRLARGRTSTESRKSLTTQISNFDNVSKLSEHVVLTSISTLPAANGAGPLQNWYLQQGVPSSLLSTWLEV

[
  {
    "entry-smiles": "Cc1ccc(-n2nccn2)c(C(=O)N2CCN(c3nc4cc(Cl)ccc4o3)CC[C@H]2C)c1",
    "target-system": "Orexin receptor type 2 (Mus musculus)",
    "Ki, nM": 8.71
  },
  {
    "entry-smiles": "COc1ccnc(N2CCC3(CCCN(Cc4c[nH]c5ccccc45)C3=O)CC2)n1",
    "target-system": "Orexin receptor type 2 (Mus musculus)",
    "Ki, nM": 58.9
  }
]

====

molecular target: Orexin receptor type 2 (Homo sapiens, UniProt O43614); experiment: Antagonist activity at human OX2 receptor expressed in HEK cells assessed as inhibition of orexin A-induced Ca2+ accumulation after 1 hr by Fluo-4-AM staining-based FLIPR assay
Sequence (O43614 whole entry): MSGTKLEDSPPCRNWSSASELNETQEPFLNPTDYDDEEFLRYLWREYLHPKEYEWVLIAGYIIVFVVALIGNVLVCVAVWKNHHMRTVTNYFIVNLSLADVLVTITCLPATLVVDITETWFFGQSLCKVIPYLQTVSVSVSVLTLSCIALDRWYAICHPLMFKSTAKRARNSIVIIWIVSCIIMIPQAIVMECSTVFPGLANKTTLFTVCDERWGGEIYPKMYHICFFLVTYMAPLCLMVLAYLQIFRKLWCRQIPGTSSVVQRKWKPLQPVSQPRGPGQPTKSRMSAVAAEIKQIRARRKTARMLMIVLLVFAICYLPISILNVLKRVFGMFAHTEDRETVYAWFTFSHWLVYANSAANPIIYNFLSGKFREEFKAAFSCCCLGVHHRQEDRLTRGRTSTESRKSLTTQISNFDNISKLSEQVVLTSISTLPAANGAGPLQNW
pKi: −log10 of the molar value.
pKi by entry:

[
  {
    "entry-smiles": "Cc1cc(C)nc(N2CCC3(CCCN(Cc4nn(C)nc4-c4ccccc4)C3=O)CC2)n1",
    "pKi": 8.34
  },
  {
    "entry-smiles": "Cc1cc(C)nc(N2CCC3(CCCN(Cc4n[nH]cc4-c4ccccc4)C3=O)CC2)n1",
    "pKi": 8.41
  },
  {
    "entry-smiles": "Cc1cc(C)nc(N2CCC3(CCCN(Cc4[nH]nnc4-c4ccccc4)C3=O)CC2)n1",
    "pKi": 8.93
  },
  {
    "entry-smiles": "Cc1cc(C)nc(N2CCC3(CCCN(Cc4c[nH]c5ccccc45)C3=O)CC2)n1",
    "pKi": 8.16
  },
  {
    "entry-smiles": "Cc1cc(C)nc(N2CCC3(CCCN(Cc4cn(C)c5ccccc45)C3=O)CC2)n1",
    "pKi": 7.68
  },
  {
    "entry-smiles": "O=C1N(Cc2c[nH]c3ccccc23)CCCC12CCN(c1cnccn1)CC2",
    "pKi": 6.51
  },
  {
    "entry-smiles": "Cc1ccnc(N2CCC3(CCCN(Cc4c[nH]c5ccccc45)C3=O)CC2)n1",
    "pKi": 7.57
  },
  {
    "entry-smiles": "Cc1cc(C)nc(N2CCC3(CCCC(=O)N3Cc3cccc4[nH]ccc34)CC2)n1",
    "pKi": 9.07
  },
  {
    "entry-smiles": "COc1ccc2[nH]cc(CN3CCCC4(CCN(c5nc(C)cc(C)n5)CC4)C3=O)c2c1",
    "pKi": 9.78
  },
  {
    "entry-smiles": "O=C1CCCC2(CCN(c3cnc4ccccc4n3)CC2)N1Cc1ccccc1",
    "pKi": 6.23
  }
]

Attribution: ChEMBL document CHEMBL2434958
